applied.conditions: Escherichia coli (strain K12); pH 7.5; Thermal; Intensity; HEPES 20mM; transition: 2; whole UniProt chain shown
test.readout: Tm (°C)
Return type: number; implicit unit °C.

Note Tm for the protein shown: HTH-type transcriptional repressor PurR wild type, P0ACP7 (protein) MATIKDVAKRANVSTTTVSHVINKTRFVAEETRNAVWAAIKELHYSPSAVARSLKVNHTKSIGLLATSSEAAYFAEIIEAVEKNCFQKGYTLILGNAWNNLEKQRAYLSMMAQKRVDGLLVMCSEYPEPLLAMLEEYRHIPMVVMDWGEAKADFTDAVIDNAFEGGYMAGRYLIERGHREIGVIPGPLERNTGAGRLAGFMKAMEEAMIKVPESWIVQGDFEPESGYRAMQQILSQPHRPTAVFCGGDIMAMGALCAADEMGLRVPQDVSLIGYDNVRNARYFTPALTTIHQPKDSLGETAFNMLLDRIVNKREEPQSIEVHPRLIERRSVADGPFRDYRR
45.6
